- Test system: Botrytis cinarea (strain CBS 261.71)
- assay details: Botrytis viability colorimetric assay (PrestoBlue resazurin)
- Format: cell-based, Botrytis cinerea
- assay context: 375 micromolar; four replicates
quantity name: Percent Inhibition (Botrytis), Mean

Reference set, count: 6
1) WKMGQYHQLPPLW [SEQ ID NO: 2185]	52.30%
2) WHWLQLKPGQPMYGGGGSWHWLQLKPGQPMY (listed as Saccharomyces cerevisiae) [SEQ ID NO: 2189, Saccharomyces cerevisiae alpha pheromone homodimer including glycine linker]	79.77%
3) WHWLQLKPGQPMYG (listed as Saccharomyces cerevisiae) [SEQ ID NO: 2186, Saccharomyces cerevisiae alpha pheromone with C-terminal glycine]	47.30%
4) WHWLQLKPGQPMYWHWLQLKPGQPMY (listed as Saccharomyces cerevisiae) [SEQ ID NO: 2188, Saccharomyces cerevisiae alpha pheromone homodimer with no linker]	71.82%
5) WHWLQLKPGQPMY (listed as Saccharomyces cerevisiae) [SEQ ID NO: 2184, Saccharomyces cerevisiae alpha pheromone]	45.14%
6) WCGRPGQPC (REGION 1..9: note = Botrytis spp.) [SEQ ID NO: 2183, Botrytis cinerea alpha pheromone]	−22.63%

Moving on to the next sequence.
Percent Inhibition (Botrytis), Mean value, target or system Botrytis cinarea (strain CBS 261.71), for GWHWLQLKPGQPMY (listed as Saccharomyces cerevisiae) [SEQ ID NO: 2187, Saccharomyces cerevisiae alpha pheromone with N-terminal glycine] : 66.96%

---

- System: Fusarium conidial suspension
- assay details: Fusarium viability colorimetric assay (PrestoBlue resazurin)
- Format: cell-based
Hi! Could you tag entries with Percent Inhibition (Fusarium), Experiment 5, Mean below 70% as YES, and those at or above as NO? Much appreciated.

Solved entries:
1) WHWLQLKPGQPMYG (listed as Saccharomyces cerevisiae) [SEQ ID NO: 2186, Saccharomyces cerevisiae alpha pheromone with C-terminal glycine]	YES
2) WCGRPGQPC (REGION 1..9: note = Botrytis spp.) [SEQ ID NO: 2183, Botrytis cinerea alpha pheromone]	YES
3) WCTWKGQPCW [SEQ ID NO: 2182]	YES
4) WHWLQLKPGQPMY (listed as Saccharomyces cerevisiae) [SEQ ID NO: 2184, Saccharomyces cerevisiae alpha pheromone]	YES
5) WHWLQLKPGQPMYGGGGSWHWLQLKPGQPMY (listed as Saccharomyces cerevisiae) [SEQ ID NO: 2189, Saccharomyces cerevisiae alpha pheromone homodimer including glycine linker]	NO

# ---- query sequence ----
Task: Is 70% strictly greater than the sequence's reported Percent Inhibition (Fusarium), Experiment 5, Mean? sequence: GWHWLQLKPGQPMY (listed as Saccharomyces cerevisiae) [SEQ ID NO: 2187, Saccharomyces cerevisiae alpha pheromone with N-terminal glycine]
Result: YES

---

- Test system: Fusarium conidial suspension
- assay details: Fusarium viability colorimetric assay (PrestoBlue resazurin)
- Type: cell-based
- Procedure: A Fusarium conidial suspension was prepared from a 7-day culture of Fusarium biomass grown on potato dextrose agar for 7 days, and quantified by hemocytometer, as described in Example 4. Solutions of fenpiclonil (Millipore Sigma, Cat. no. 36532) and of the individual peptides were prepared in 50% (w/v) ethanol in water, and tested using a PrestoBlue™ (resazurin) viability colorimetric assay as described in Example 4. […]
quantity name: Percent Inhibition (Fusarium), Experiment 4, Mean (%)
# number only, unit % dropped from output

1. WCGRPGQPC (REGION 1..9: note = Botrytis spp.) [SEQ ID NO: 2183, Botrytis cinerea alpha pheromone]	46.67

The reported Percent Inhibition (Fusarium), Experiment 4, Mean of the sequence WHWLQLKPGQPMY (listed as Saccharomyces cerevisiae) [SEQ ID NO: 2184, Saccharomyces cerevisiae alpha pheromone] was 66.33

response.value for WCTWKGQPCW [SEQ ID NO: 2182] (field: Percent Inhibition (Fusarium), Experiment 4, Mean) = 47.78

The sequence listed as WHWLQLKPGQPMYG (listed as Saccharomyces cerevisiae) [SEQ ID NO: 2186, Saccharomyces cerevisiae alpha pheromone with C-terminal glycine] has a reported Percent Inhibition (Fusarium), Experiment 4, Mean of 64.21

// recorded Percent Inhibition (Fusarium), Experiment 4, Mean for WKMGQYHQLPPLW [SEQ ID NO: 2185] : 70.84

The reported numbers originate from patent US20250287945A1.
